# target.under.test: T1, mouse IL-17A (mouse, UniProt Q62386 26-158)
# T1 sequence (looked up): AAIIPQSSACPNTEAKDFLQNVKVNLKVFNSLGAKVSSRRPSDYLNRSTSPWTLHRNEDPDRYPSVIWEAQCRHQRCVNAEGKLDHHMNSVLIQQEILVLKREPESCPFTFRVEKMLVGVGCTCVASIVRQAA
# method.summary: ELISA, coated IL-17A
observable: OD (OD)
One number for each entry, in OD.

04B09 (VHH, Class 2) VHH: EVQLVESGGGLVQPGGSLRLSCAASGFTLGYYAIGWFRQAPGKEREGVSCDSSSDGDTYYANSVKGRFTISTDNGKNTVYLQMNSLKPEDTAVYYCATCTDWNYDYWGQGTQVTVSS
0
03C07 (VHH, Class 2) VHH: EVQLVESGGGLVQAGGSLRLSCAASGFTFDDYAIGWFRQAPGKEREAVSCFSSSDGSIYYADSVKGRFTISSDNAKNTVYLQMNSLKPEDTAVYYCAGGGGSYYYTQLNYCYDMDYWGKGTQVTVSS
-0.004
13E02 (VHH, Class 4; also called IL17MS13E02) VHH: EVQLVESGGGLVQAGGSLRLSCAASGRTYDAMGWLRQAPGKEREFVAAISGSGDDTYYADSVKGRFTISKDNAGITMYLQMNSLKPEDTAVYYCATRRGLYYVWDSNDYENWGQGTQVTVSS
-0.001
17C01 (VHH, Class 4) VHH: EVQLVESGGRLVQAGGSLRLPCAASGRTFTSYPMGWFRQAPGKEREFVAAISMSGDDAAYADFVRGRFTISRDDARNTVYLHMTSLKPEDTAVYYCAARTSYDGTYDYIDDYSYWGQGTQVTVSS
-0.001

Now consider the entry below.
Looking up 13B03 (VHH, Class 4; also called IL17MS13B03) VHH: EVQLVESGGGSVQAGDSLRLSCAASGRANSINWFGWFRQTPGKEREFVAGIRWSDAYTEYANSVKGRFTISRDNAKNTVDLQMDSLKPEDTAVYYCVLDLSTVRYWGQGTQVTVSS , I found its OD recorded as -0.001
